This section presents binders with their documented median log2 fold change values.
# ASSAYED_TARGET: T1, USP38, Q8NB14
# T1 chain: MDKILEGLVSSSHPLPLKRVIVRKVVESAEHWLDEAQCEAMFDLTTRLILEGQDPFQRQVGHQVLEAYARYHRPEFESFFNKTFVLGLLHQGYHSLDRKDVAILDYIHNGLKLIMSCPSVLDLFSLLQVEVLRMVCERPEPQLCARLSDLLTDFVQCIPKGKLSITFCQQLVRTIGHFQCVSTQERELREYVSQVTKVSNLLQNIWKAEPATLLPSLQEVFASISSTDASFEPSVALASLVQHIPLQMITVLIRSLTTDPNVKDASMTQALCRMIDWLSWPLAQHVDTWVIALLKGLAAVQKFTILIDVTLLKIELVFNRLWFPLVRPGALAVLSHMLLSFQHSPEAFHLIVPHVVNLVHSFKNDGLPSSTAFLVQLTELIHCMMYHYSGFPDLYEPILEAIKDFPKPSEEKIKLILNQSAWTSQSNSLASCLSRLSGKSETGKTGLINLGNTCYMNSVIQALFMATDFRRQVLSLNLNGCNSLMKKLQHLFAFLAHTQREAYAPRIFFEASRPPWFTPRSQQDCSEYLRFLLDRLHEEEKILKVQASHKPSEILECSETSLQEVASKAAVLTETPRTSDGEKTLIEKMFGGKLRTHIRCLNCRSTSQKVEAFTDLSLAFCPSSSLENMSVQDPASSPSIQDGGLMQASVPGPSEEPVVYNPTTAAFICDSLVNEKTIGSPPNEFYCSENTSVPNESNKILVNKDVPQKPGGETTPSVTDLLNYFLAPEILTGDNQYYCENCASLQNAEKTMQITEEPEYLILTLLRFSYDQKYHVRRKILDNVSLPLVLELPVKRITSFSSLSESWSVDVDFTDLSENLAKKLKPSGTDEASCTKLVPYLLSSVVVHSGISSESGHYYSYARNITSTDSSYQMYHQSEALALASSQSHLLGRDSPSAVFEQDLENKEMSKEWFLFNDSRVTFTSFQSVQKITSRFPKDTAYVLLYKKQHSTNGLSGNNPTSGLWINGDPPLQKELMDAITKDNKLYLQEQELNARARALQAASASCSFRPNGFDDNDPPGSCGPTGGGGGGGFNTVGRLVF
# ASSAY_PROTOCOL: median log2 fold change of GCK-ALFA target abundance (FLAG IP / Myc IP barcode read proportion) (log2 ratio); each designed protein is fused to an ALFA-tag nanobody in HEK293 cells to bring the named protein to FLAG-tagged glucokinase (GCK); Myc marks an untargeted standard; higher = target protein stabilised (more abundant)
# CONDITION_SUMMARY: target protein: 3xFLAG-MCP-GCK-ALFA reporter; HEK293 landing pad (RPLP)

- BINDER: "usp_38_diff_out_17_26_243 (protein) SAEEKRKKARELLKKLKEESEKALEEIKKLIKEGKFEEAEKLLEETVKKVTETTLEILELAADDPELVEEVLEAYDEISDKLAQAYKELQKAKKEAAAKA"
  median log2 fold change: -0.0758
- BINDER: "usp_38_diff_out_18_121_251 (protein) EAKKVAEEALKAAKEATKLAKELLKAIKEGKWEKAEKLDKELDKKIKEFGRLYQELRDLRSEDPEQTKPLLKEVEKEGDKMIDIYNEAGTALFLAEAERQ"
  median log2 fold change: -0.563
